Taken from patent US5716945A.

Test system: calcium metabolism
Run description: calciuric effect in rats relative to 1α,25(OH)2 D3 (calcium metabolism)
Assay type: in vivo
Experimental setup: number smaller than 1 = less change in calcium excretion
Reported endpoint: Calcium metabolism (calciuric effect)
Reply with the value as a number alone.

INSERT INTO measurements (structure_as_smiles, target, reported_endpoint, assay_value) VALUES
  ('C=C1/C(=C\C=C2/CCC[C@]3(C)[C@@H]([C@H](C)/C=C/C=C/C(O)(CC)CC)CC[C@@H]23)C[C@@H](O)C[C@@H]1O', 'calcium metabolism', 'Calcium metabolism (calciuric effect)', 0.4),
  ('C=C1/C(=C\C=C2/CCC[C@]3(C)[C@@H]([C@H](C)/C=C/[C@@H](O)C4CC4)CC[C@@H]23)C[C@@H](O)C[C@@H]1O', 'calcium metabolism', 'Calcium metabolism (calciuric effect)', 0.005),
  ('C=C1/C(=C\C=C2/CCC[C@]3(C)[C@@H]([C@@H](C)/C=C/C#CC(O)(CC)CC)CC[C@@H]23)C[C@@H](O)C[C@@H]1O', 'calcium metabolism', 'Calcium metabolism (calciuric effect)', 0.015);

Would you kindly look at the next entry?
INPUT: For the compound C=C1/C(=C\C=C2/CCC[C@]3(C)[C@@H]([C@H](C)/C=C/C#CC(O)(CC)CC)CC[C@@H]23)C[C@@H](O)C[C@@H]1O , report Calcium metabolism (calciuric effect).
OUTPUT: 0.2

====

System: U937 human histiocytic leukemia cells
Run description: antiproliferative effect in U937 human histiocytic leukemia cells relative to 1α,25(OH)2 D3
Assay type: cell-based
Experimental setup: number greater than 1 = higher antiproliferative activity
Reported endpoint: U937, inhib. of prolifer.

INSERT INTO measurements (structure_as_smiles, assay_value) VALUES
  ('C=C1/C(=C\C=C2/CCC[C@]3(C)[C@@H]([C@H](C)/C=C/C=C/C(O)(CC)CC)CC[C@@H]23)C[C@@H](O)C[C@@H]1O', 68);

INPUT: Would you please give the reported U937, inhib. of prolifer. of C=C1/C(=C\C=C2/CCC[C@]3(C)[C@@H]([C@H](C)/C=C/[C@@H](O)C4CC4)CC[C@@H]23)C[C@@H](O)C[C@@H]1O with U937 human histiocytic leukemia cells?
OUTPUT: 1

INPUT: Would you please give the reported U937, inhib. of prolifer. of C=C1/C(=C\C=C2/CCC[C@]3(C)[C@@H]([C@H](C)/C=C/C#CC(O)(CC)CC)CC[C@@H]23)C[C@@H](O)C[C@@H]1O with U937 human histiocytic leukemia cells?
OUTPUT: 89

INPUT: Would you please give the reported U937, inhib. of prolifer. of C=C1/C(=C\C=C2/CCC[C@]3(C)[C@@H]([C@@H](C)/C=C/C#CC(O)(CC)CC)CC[C@@H]23)C[C@@H](O)C[C@@H]1O with U937 human histiocytic leukemia cells?
OUTPUT: 1.1
